Values compiled from patent US20250376461A1.

- Assay system: UniProt J9SQF3
- Sequence (J9SQF3 1-1709 isoform J9SQF3-12): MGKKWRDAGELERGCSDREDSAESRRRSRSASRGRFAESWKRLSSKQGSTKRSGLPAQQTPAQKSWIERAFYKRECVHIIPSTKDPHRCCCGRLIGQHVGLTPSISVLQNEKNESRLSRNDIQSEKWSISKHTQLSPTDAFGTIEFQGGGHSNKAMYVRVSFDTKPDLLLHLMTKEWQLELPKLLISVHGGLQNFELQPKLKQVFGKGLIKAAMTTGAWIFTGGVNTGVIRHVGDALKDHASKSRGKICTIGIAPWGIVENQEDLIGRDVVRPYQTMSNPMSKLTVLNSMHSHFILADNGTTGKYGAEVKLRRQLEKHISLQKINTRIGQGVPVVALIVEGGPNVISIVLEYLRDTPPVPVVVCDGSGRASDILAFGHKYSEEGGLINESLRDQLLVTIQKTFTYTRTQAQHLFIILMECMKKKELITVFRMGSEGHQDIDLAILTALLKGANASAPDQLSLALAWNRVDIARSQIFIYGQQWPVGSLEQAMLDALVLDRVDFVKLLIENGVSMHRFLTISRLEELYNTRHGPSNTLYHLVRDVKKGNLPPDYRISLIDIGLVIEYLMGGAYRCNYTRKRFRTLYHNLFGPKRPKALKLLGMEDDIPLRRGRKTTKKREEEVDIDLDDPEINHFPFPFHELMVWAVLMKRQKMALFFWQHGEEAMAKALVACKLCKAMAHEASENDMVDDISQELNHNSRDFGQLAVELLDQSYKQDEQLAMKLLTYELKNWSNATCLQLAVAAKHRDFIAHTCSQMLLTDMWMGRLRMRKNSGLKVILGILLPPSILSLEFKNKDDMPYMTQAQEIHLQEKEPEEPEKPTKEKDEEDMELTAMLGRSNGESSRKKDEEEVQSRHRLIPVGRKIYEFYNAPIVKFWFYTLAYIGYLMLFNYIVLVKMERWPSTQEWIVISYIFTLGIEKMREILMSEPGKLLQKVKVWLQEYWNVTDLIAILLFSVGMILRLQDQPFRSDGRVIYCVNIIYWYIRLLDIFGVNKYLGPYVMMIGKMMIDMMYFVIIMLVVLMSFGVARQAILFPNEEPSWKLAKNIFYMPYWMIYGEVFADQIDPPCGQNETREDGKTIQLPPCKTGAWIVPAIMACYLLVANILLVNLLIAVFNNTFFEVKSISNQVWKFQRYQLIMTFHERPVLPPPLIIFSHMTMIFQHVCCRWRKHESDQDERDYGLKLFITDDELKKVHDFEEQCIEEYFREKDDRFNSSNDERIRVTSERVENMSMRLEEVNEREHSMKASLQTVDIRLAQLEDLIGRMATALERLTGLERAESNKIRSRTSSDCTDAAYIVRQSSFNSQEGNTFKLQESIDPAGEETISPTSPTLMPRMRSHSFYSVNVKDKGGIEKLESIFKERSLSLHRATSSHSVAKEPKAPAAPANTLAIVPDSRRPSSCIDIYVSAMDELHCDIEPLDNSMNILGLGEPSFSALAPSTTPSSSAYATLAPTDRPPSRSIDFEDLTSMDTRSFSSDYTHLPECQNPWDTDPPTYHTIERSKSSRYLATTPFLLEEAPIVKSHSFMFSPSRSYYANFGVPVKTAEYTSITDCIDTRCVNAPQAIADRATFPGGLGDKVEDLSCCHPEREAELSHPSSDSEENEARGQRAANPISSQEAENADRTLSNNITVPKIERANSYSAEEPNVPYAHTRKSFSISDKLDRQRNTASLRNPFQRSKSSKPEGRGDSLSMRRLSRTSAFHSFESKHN
- Experimental protocol: TRPM3 ion channel driven Ca2+ uptake, Fluo-4 AM assay, mTRPM3alpha2 overexpressing flip-in HEK293 cells stimulated with pregnenolone sulfate (50 μM)
- Condition parameters: mTRPM3 overexpressing HEK293 cells stimulated with pregnenolone sulfate (50 μM), activity ranges A, B, C
Attribute: IC50

[[record]]
molecule = "Cn1nccc1COc1ccc2nn(C)c(C(=O)NC(CO)C(N)=O)c2c1 (centres unmarked) [Cpd 027]"
data_value = "1 to 20 µM"


Then this molecule:
Which IC50 reading was recorded for the molecule Cn1nc2ccc(OCC3CC3)cc2c1C(=O)NC(C)(C)C(N)=O [Cpd 134] ? 1 to 20 µM
